# MEASURED TARGET: T1, human MSLN-R1-his protein (human, UniProt Q13421 296-390)
# T1 construct: Region 1 of human mesothelin, made in HEK293E cells, His-tagged; also called human MSLN-R1 protein; hMSLN-R1-his; not shown: His tag
# T1 chain: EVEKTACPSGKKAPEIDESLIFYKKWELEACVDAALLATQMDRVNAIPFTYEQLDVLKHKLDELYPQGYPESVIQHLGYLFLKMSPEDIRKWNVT
# ASSAY PROCEDURE: ELISA on coated MSLN-R1; antibody 1 nM
Parameter: OD450. Scope: all listed entries.
Just the number in OD450, nothing appended.

# annotated cases, reported OD450 shown
BINDER	OD450 (OD450)
S009-F8-31.22 (antibody, human IgG1, kappa, V domains shown) VH: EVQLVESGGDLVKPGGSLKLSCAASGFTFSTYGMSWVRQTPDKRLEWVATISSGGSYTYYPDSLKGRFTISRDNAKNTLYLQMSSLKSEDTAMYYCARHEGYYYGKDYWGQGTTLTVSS VL: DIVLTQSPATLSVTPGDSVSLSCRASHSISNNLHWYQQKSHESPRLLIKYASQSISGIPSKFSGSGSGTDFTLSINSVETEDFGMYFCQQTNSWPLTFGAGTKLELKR	2.05
S009-F8-27.1 (antibody, human IgG1, kappa, V domains shown) VH: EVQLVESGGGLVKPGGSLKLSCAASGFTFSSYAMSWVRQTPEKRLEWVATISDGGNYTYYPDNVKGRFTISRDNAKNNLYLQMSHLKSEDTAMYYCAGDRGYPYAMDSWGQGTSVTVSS VL: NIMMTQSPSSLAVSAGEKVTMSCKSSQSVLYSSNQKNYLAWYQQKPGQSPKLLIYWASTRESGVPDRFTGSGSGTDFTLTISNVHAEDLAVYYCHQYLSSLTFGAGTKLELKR	0.05
S009-F8-19.21 (antibody, human IgG1, kappa, V domains shown) VH: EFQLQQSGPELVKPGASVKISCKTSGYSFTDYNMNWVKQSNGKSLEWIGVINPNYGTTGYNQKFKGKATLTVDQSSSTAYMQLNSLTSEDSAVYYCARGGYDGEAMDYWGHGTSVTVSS VL: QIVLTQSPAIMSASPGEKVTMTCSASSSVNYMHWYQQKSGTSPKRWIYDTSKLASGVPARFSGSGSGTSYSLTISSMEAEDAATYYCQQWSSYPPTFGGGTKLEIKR	1.82

Query string: Field request: OD450 | item: S009-F8-22.23 (antibody, human IgG1, kappa, V domains shown) VH: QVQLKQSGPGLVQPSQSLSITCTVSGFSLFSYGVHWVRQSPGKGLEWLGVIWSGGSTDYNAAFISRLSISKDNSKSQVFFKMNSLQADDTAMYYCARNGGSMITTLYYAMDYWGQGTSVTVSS VL: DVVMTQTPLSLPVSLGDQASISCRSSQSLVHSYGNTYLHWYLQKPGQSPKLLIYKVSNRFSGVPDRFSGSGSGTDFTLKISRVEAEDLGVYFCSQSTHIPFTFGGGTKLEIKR
Result string: 2.34

Query string: Field request: OD450 | item: S009-F8-15.19 (antibody, human IgG1, kappa, V domains shown) VH: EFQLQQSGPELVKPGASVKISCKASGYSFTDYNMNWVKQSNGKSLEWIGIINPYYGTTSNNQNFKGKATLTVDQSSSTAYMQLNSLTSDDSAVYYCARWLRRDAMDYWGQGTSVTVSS VL: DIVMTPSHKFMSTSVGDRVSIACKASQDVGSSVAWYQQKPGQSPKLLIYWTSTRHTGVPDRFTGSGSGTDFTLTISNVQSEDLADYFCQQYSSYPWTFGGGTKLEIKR
Result string: 0.54

Query string: Field request: OD450 | item: S009-F8-18.9 (antibody, human IgG1, kappa, V domains shown) VH: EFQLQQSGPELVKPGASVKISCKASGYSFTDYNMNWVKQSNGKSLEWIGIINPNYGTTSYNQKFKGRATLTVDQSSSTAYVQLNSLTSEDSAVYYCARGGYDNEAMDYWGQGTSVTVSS VL: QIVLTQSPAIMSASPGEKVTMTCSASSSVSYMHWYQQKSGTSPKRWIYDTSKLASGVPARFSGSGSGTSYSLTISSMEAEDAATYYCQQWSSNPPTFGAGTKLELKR
Result string: 1.96

Query string: Field request: OD450 | item: S009-F8-28.23 (antibody, human IgG1, kappa, V domains shown) VH: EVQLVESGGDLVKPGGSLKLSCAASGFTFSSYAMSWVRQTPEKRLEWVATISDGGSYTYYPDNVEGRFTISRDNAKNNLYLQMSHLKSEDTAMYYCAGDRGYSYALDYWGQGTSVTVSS VL: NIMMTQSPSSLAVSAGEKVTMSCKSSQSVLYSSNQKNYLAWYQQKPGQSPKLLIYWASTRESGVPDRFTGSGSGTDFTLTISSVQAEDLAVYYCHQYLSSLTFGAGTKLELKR
Result string: 0.04

Query string: Field request: OD450 | item: S009-F8-36.12 (antibody, human IgG1, kappa, V domains shown) VH: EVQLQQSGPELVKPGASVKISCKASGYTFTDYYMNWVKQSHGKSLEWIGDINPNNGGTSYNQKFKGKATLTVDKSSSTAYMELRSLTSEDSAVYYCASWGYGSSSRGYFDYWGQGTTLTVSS VL: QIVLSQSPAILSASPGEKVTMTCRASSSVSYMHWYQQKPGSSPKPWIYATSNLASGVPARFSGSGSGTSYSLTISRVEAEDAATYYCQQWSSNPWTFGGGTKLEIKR
Result string: 0.04

Query string: Field request: OD450 | item: S009-F8-32.3 (antibody, human IgG1, kappa, V domains shown) VH: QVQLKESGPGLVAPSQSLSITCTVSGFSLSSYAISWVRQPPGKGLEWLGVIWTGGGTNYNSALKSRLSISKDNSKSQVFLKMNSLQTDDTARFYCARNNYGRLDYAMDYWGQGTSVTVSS VL: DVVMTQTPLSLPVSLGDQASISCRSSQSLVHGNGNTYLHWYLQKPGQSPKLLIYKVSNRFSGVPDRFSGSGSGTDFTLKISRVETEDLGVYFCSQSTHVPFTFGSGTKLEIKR
Result string: 2.6

Query string: Field request: OD450 | item: S009-F8-9.16 (antibody, human IgG1, kappa, V domains shown) VH: EVHLQQSGPVLVKPGASVKMSCKASGYTFTDYFMNWVKQSHGKSLEWIGVINPHNGYVNYNQKFQGRATLTVDKSSSTVYMELNSLTSEDSAVYHCARSAESAWFAYWGQRTLVTVSA VL: DVLMTQTPLSLPVSLGDQVSISCRSSQSIVHVKGNTYLEWYLQKPGQSPELLIYKVSNRFSGVPDRFSGGGSGTDFTLKISRVEPEDLGVYYCFQGSHLPYTFGGGTKLEIKR
Result string: 0.04
